Origin of values: patent US9260429B2

This section presents molecules with their documented inhibition at 1 µM values.
# Target Desc: human recombinant histamine H1 receptor (Homo sapiens)
# Construct: expressed in transfected cells; host or cells: CHO cells
# Sequence (P35367 whole entry): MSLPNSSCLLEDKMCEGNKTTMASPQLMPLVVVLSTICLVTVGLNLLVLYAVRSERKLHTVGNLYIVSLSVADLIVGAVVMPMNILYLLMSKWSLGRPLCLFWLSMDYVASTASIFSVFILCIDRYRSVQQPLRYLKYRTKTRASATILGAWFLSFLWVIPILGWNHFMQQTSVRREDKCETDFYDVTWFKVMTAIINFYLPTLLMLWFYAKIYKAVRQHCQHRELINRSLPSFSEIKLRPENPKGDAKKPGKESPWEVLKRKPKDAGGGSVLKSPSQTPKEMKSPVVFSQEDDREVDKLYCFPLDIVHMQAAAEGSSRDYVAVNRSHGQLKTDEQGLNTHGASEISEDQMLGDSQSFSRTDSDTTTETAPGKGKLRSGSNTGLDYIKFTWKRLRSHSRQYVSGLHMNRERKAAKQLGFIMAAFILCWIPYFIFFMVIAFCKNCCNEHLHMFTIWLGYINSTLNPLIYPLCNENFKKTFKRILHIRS
# Method Notes: Histamine H1 radioligand binding ([3H]Pyrilamine)
# Run Conditions: 1 μM; read-out: Binding data (Percentage Inhibition) Histamine Binding (1 μM) H1
Measured Endpoint: inhibition at 1 µM (%)

1) Cc1ccc2c(c1)c1c(n2CC(C)(O)c2ccc(F)cc2)CN(C)CC1 (centres unmarked) [Compound 61] : 49
2) C/C(=C\n1c2c(c3cc(Cl)ccc31)CCN(C)C2)c1ccc(F)c(F)c1 [Compound 110] : 25
3) CN1CCc2c(n(CC(=O)NC3CCCCC3)c3ccc(Cl)cc23)C1 [Compound 17] : 54
4) C/C(=C\n1c2c(c3cc(C)ccc31)CCN(C)C2c1ccccc1)c1ccc(Cl)cc1 (centres unmarked) [Compound 164] : 12
5) Cc1ccc2c(c1)c1c(n2/C=C/c2ccccc2)CN(C)CC1 [Compound 92] : 99
6) CCC1c2c(c3cc(C)ccc3n2/C=C(\C)c2ccc(F)c(F)c2)CCN1C (centres unmarked) [Compound 176] : 17
7) CC1c2c(c3cc(Cl)ccc3n2CCc2ccc(F)cc2)CCN1C (centres unmarked) [Compound 81] : 80
8) CCC1c2c(c3cc(Cl)ccc3n2CC(C)(O)c2ccc(F)cc2)CCN1C (centres unmarked) [Compound 79] : 50
9) C/C(=C\n1c2c(c3cc(Cl)ccc31)CCN(C)C2C)c1ccc(F)c(F)c1 (centres unmarked) [Compound 111] : 60
10) C/C(=C/n1c2c(c3cc(C)ccc31)CCN(C)C2C)c1ccc(F)c(F)c1 (centres unmarked) [Compound 175] : 25
11) COC(=O)Cn1c2c(c3cc(C)ccc31)CCN(C)C2 [Compound 21] : 3

* * *

# Target Desc: human recombinant serotonin (5-Hydroxytryptamine) 5-HT2A receptor (Homo sapiens)
# Construct: expressed in transfected cells; host or cells: CHO-K1 cells
# Sequence (P28223 whole entry): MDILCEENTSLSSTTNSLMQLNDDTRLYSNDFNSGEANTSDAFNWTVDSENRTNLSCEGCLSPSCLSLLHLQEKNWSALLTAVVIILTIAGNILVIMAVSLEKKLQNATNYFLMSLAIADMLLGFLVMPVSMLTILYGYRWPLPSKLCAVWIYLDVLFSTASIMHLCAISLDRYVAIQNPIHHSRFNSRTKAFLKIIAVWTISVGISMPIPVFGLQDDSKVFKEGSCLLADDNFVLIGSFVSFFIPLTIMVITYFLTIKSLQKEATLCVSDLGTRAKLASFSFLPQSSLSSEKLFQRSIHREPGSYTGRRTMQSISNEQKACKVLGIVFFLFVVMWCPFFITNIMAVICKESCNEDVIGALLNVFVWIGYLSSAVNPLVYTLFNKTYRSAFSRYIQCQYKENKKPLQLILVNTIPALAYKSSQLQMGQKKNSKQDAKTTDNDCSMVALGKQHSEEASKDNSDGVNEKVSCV
# Method Notes: Serotonin 5-HT2A radioligand binding ([3H]Ketanserin)
# Run Conditions: compound concentration 10 nM; read-out: Percentage inhibition of ligand binding to 5-HT2A receptor
This section presents molecules with their documented inhibition at 0.01 µM values.
Measured Endpoint: inhibition at 0.01 µM (%)

1) C/C(=C\n1c2c(c3cc(Cl)ccc31)CCN(C)C2)c1ccc(F)cc1 : 9
2) C/C(=C\n1c2c(c3cc(C)ccc31)CCN(C)C2)c1ccc(F)cc1 : 21
3) C/C(=C\n1c2c(c3cc(C)ccc31)CCN(C)C2C)c1ccccc1F (stereo not shown) : 15
4) Cc1ccc2c(c1)c1c(n2/C=C/c2ccccc2)CN(C)CC1 : 13

* * *

# Target Desc: human recombinant histamine H2 receptor (Homo sapiens, UniProt P25021)
# Construct: expressed in transfected cells; host or cells: CHO-K1 cells
# Sequence (P25021 whole entry): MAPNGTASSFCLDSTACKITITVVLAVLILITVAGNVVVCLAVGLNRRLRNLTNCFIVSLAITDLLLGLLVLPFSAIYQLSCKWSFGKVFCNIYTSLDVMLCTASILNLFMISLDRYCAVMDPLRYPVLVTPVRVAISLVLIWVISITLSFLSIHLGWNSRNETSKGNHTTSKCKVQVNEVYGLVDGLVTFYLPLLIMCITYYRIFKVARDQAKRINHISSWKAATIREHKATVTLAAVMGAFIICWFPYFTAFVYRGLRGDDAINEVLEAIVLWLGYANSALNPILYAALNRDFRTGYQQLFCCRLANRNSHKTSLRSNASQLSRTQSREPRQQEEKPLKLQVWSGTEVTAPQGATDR
# Method Notes: Histamine H2 radioligand binding ([125I]Aminopotentidine)
# Run Conditions: 1 μM; inhibition of specific [125I]Aminopotentidine binding; read-out: Binding data (Percentage Inhibition) Histamine Binding (1 μM) H2
Binary classification by inhibition at 1 µM, with 20% as an inclusive lower bound for criterion met; all other cases are criterion not met.

1) C/C(=C\n1c2c(c3cc(Cl)ccc31)CCN(C)C2)c1ccc(Cl)c(Cl)c1 : criterion met
2) Cc1ccc2c(c1)c1c(n2CCc2ccc(C(F)(F)F)nc2)CN(C)CC1 : criterion met
3) CN1CCc2c(n(CCc3ccc(F)cc3)c3ccc(Cl)cc23)C1 : criterion met
4) C/C(=C\n1c2c(c3cc(C)ccc31)CCN(C)C2C)c1ccc(Cl)cc1Cl (stereo not drawn) : criterion met
5) C/C(=C\n1c2c(c3cc(C)ccc31)CCN(C)C2)c1ccc(Cl)cc1 : criterion met
6) CN1CCc2c(n(CC(=O)N(C)C3CCCCC3)c3ccc(Cl)cc23)C1 : criterion not met
7) Cc1ccc2c(c1)c1c(n2CC(O)c2ccccc2F)CN(C)CC1 (stereo not drawn) : criterion not met
8) C#CCn1c2c(c3cc(Cl)ccc31)CCN(C)C2 : criterion not met
